assayed_system: C-C chemokine receptor type 6 (Homo sapiens)
assay_explanation: blockers of CCL20-driven beta-arrestin recruitment to CCR6 – cell-based, CHO-K1, luminescence, uHTS, primary screen (AID 493098);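 also: cells stimulated with CCL20 at 14 nM final; plate controls were DMSO with CCL20 for no effect and DMSO without agonist for full effect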
protocol_conditions: CHO-K1 CCR6 PathHunter beta-arrestin, CCL20-stimulated, at 20 µM, stronger effect = higher value
Among all 340,000 compounds or so, about 1,700 (0.5%) were called active. What follows is part of a selection rich in actives, with near analogues and random picks from the rest.
So I've got a bunch of molecules here, and I need their inhibition values.
Kindly answer with a numeric value in %, unit omitted.

Given the molecule CCC(C)N(C(=O)Cn1nc(C)c([N+](=O)[O-])c1C)C1CCS(=O)(=O)C1 (stereo unspecified) , what is its reported inhibition?
-5.11

Given the molecule `Cc1ccc2c(C)c(C(=O)N3CCC(N4CCC(C(=O)NC5CC5)CC4)CC3)oc2c1` , what is its reported inhibition?
1.71

Given the molecule Cc1nc(SCC(=O)NC2CCCCC2C)c(C#N)c(C)c1C (stereo unspecified) , what is its reported inhibition?
13

Given the molecule O=C1c2cccnc2C(Nc2ccc(S(=O)(=O)N3CCCCCC3)cc2)N1Cc1ccccc1 (stereo unspecified) , what is its reported inhibition?
5.72

Given the molecule `Cc1ccc(Br)c(NS(=O)(=O)c2cccc(C(=O)N3CCNC(=O)C3)c2)c1` , what is its reported inhibition?
-11

Given the molecule `O=C(O)CCN(Cc1ccccc1)S(=O)(=O)c1c(Cl)cccc1Cl` , what is its reported inhibition?
4.62

Given the molecule `O=C(COc1ncnc2ccccc12)NC(=O)NCc1ccccc1` , what is its reported inhibition?
3.38

Given the molecule `c1nc(COc2nsnc2N2CCOCC2)cs1` , what is its reported inhibition?
-2.16

Given the molecule Cc1cnc(C(=O)N2CCCC(C(=O)c3ccc(C(F)(F)F)cc3)C2)cn1 (stereo unspecified) , what is its reported inhibition?
15.2

Given the molecule `CCc1nnc(NC(=O)C2CCN(C(=O)c3ccccc3C)CC2)s1` , what is its reported inhibition?
1.37

Given the molecule `CN(C)/C=N/c1cc(=O)n(C)c(=O)n1CC1CC1` , what is its reported inhibition?
-0.5
